Reference source: patent US4483868A

Experiment: Determination of acute toxicity (LD50, oral, mice)
Details: mouse, in vivo, oral administration
Each record here notes measured LD50.

A selection of reference data follows.
                      record_smiles  endpoint_result
0      O=C(O)/C=C/C(=O)c1ccc(Cl)cc1       ~200 mg/kg
1       O=C(O)/C=C/C(=O)c1ccc(F)cc1       ~300 mg/kg
2  COc1ccc(OC)c(C(=O)/C=C/C(=O)O)c1       ~300 mg/kg

Consider now this further compound.
Input O=C(O)/C=C/C(=O)c1ccccc1[N+](=O)[O-] , output reported LD50. ~500 mg/kg

----------
# key: entry, value: inhibition in vivo at 20 mg/kg
Test system: ulcers in rats at the stomach level
Experiment: Anti-ulcer activity, Shay method (pylorus ligature in rats)
Format: in vivo
Details: Rattus norvegicus, oral, 20 mg/kg, about 16 hours after treatment, read-out: Ulcerations % of protection with respect to controls
# number only, unit % dropped from output

In [3]: df
Out[3]:
                          record_smiles  endpoint_result
0  O=C(O)/C=C/C(=O)c1ccccc1[N+](=O)[O-]              100
1    O=C(O)/C=C/C(=O)c1ccc(C(F)(F)F)cc1               67
2      O=C(O)/C=C/C(=O)c1ccc(Cl)c(Cl)c1               71

Now turn to the next compound.
Check the records and state inhibition in vivo at 20 mg/kg for COc1ccc(C(=O)/C=C/C(=O)O)cc1OC 100

----------
In this section we review reported LD50 values for a set of compounds.
Assay: Determination of acute toxicity (LD50, oral, mice)
Details: mouse, in vivo, oral administration

>>> df
                      record_smiles  endpoint_result
0  O=C(O)/C=C/C(=O)c1ccc(Cl)c(Cl)c1       ~500 mg/kg
1   O=C(O)/C=C/C(=O)c1ccc2c(c1)OCO2       ~400 mg/kg
2    COc1ccc(C(=O)/C=C/C(=O)O)cc1OC       ~500 mg/kg

Return LD50 for the following compound: O=C(O)/C=C/C(=O)c1ccc(C(F)(F)F)cc1 ~600 mg/kg
